# measured-target: T1, human EphA5 (Homo sapiens, UniProt P54756)
# T1 construct: a protein of the extracellular region of each human Eph receptor fused with the SEAP protein and the His tag; made in house; host or cells: Expi293F cells (culture supernatant)
# T1 sequence (P54756 25-573 limits assumed): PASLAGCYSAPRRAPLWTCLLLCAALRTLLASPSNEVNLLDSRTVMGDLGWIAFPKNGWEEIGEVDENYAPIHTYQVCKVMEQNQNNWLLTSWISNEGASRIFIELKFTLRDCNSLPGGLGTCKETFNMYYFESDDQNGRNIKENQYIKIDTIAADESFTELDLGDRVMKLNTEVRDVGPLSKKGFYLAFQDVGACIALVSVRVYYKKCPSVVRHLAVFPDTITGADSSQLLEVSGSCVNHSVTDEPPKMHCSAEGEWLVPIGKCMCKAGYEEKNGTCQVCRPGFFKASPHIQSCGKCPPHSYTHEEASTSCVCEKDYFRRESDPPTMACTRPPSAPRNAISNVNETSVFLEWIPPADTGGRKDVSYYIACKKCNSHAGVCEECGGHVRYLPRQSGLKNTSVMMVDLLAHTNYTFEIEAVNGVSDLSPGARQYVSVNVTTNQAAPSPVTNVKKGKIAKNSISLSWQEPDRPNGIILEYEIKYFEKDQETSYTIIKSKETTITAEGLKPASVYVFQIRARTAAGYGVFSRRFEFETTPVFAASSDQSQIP
# test-name: Selectivity ELISA of humanized antibodies for human Eph receptor
# Format: binding
# study-conditions: coated protein 1 nM
# Description: According to the method described in Example 7, a DNA sequence encoding the signal sequence and the extracellular region of each human Eph receptor (EphA1, EphA2, EphA3, EphA4, EphA5, EphA6, EphA7, EphA8, EphA10, EphB1, EphB2, EphB3, EphB4, and EphB6) was amplified by RT-PCR using tissue-derived total RNA and cloned into a pENTR1A vector (Invitrogen/Life Technologies) having a DNA sequence encoding SEAP protein and histidine tag. […]
parameter: hEphA5-SEAP-: absorbance at 450 nm, percentage with respect to hEphA4-SEAP-His as 100% (%)

# molecule, data-value
rows = [
    ("141 (antibody, V domains shown, synthetic humanized antibody heavy chain variable region sequence; synthetic humanized antibody light chain variable region sequence) VH: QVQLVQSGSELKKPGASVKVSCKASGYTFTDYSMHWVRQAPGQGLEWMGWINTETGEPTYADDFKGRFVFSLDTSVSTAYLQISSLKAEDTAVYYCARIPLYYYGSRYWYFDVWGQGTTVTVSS VL: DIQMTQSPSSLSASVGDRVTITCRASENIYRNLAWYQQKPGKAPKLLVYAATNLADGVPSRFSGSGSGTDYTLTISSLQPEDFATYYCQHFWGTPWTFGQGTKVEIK", 5.3),
]
